The measured values listed here are drawn from patent US10695337B2.

The following molecules are listed with their measured IC50 Ratio JAK2/JAK1 values.
- target-under-test: human JAK1 (a.a. 837-1142)
- method-notes: In vitro JAK kinase assay (HTRF, phosphorylation of a biotinylated peptide), JAK1
- Format: biochemical
- settings: measured at 1 mM ATP; JAK2 IC50 / JAK1 IC50
- Description: Compounds herein were tested for inhibitory activity of JAK targets according to the following in vitro assay described in Park et al., Analytical Biochemistry 1999, 269, 94-104. […] The phosphorylated peptide was detected by homogenous time resolved fluorescence (HTRF). […] Binding to the Europium labeled antibody took place for 40 minutes and HTRF signal was measured on a Fusion plate reader (Perkin Elmer, Boston, Mass.).
Reply briefly: the number, and no unit.

Recorded results for 6 molecules are shown here.
{"molecule": "N#CCC1(n2cc(-c3ccnc4[nH]ccc34)cn2)CN(C2CCN(C(=O)Nc3ccccc3Cl)CC2)C1", "target-under-test": "human JAK1 (a.a. 837-1142)", "IC50 Ratio JAK2/JAK1": 9.0}
{"molecule": "N#CCC1(n2cc(-c3c(F)cnc4[nH]ccc34)cn2)CN(C2CCN(C(=O)c3ccc(O)cc3F)CC2)C1", "target-under-test": "human JAK1 (a.a. 837-1142)", "IC50 Ratio JAK2/JAK1": 5.0}
{"molecule": "CN(C)c1ccc(C(=O)N2CCC(N3CC(CC#N)(n4cc(-c5ncnc6[nH]ccc56)cn4)C3)CC2)cc1C#N", "target-under-test": "human JAK1 (a.a. 837-1142)", "IC50 Ratio JAK2/JAK1": 4.6}
{"molecule": "N#CCC1(n2cc(-c3ncnc4[nH]ccc34)cn2)CN(C2CCN(C(=O)c3cc(Cl)cc(Cl)c3)CC2)C1", "target-under-test": "human JAK1 (a.a. 837-1142)", "IC50 Ratio JAK2/JAK1": 6.6}
{"molecule": "N#CCC1(n2cc(-c3c(C#N)cnc4[nH]ccc34)cn2)CN(C2CCN(C(=O)c3cc(C(F)(F)F)ncc3F)CC2)C1", "target-under-test": "human JAK1 (a.a. 837-1142)", "IC50 Ratio JAK2/JAK1": 5.8}
{"molecule": "Cc1nc(NC(=O)N2CCC(N3CC(CC#N)(n4cc(-c5ncnc6[nH]ccc56)cn4)C3)CC2)sc1C", "target-under-test": "human JAK1 (a.a. 837-1142)", "IC50 Ratio JAK2/JAK1": 3.0}

Req: Checklist item: IC50 Ratio JAK2/JAK1 tested on human JAK1 (a.a. 837-1142), entry N#CCC1(n2cc(-c3ncnc4[nH]ccc34)cn2)CN(C2CCN(Cc3cc(Br)nc(Br)c3)CC2)C1 , value?
Resp: 3.8

Req: Checklist item: IC50 Ratio JAK2/JAK1 tested on human JAK1 (a.a. 837-1142), entry N#CCC1(n2cc(-c3ncnc4[nH]ccc34)cn2)CN(C2CCN(C(=O)c3cc4cccc(C(F)(F)F)c4s3)CC2)C1 , value?
Resp: 2.7

Req: Checklist item: IC50 Ratio JAK2/JAK1 tested on human JAK1 (a.a. 837-1142), entry N#CCC1(n2cc(-c3ncnc4[nH]ccc34)cn2)CN(C2CCN(C(=O)C3(c4ccc(Cl)cc4)CC3)CC2)C1 , value?
Resp: 2.6

* * *

- target-under-test: human JAK1 (a.a. 837-1142)
- method-notes: In vitro JAK kinase assay (HTRF, phosphorylation of a biotinylated peptide), JAK1
- Type: biochemical
- settings: measured at 1 mM ATP; JAK2 IC50 / JAK1 IC50
reported-endpoint: IC50 Ratio JAK2/JAK1
Reply briefly: the number, and no unit.

{"line-notation": "CN(C)c1ccc(CN2CCC(N3CC(CC#N)(n4cc(-c5ncnc6[nH]ccc56)cn4)C3)CC2)c(F)c1C#N", "target-under-test": "human JAK1 (a.a. 837-1142)", "IC50 Ratio JAK2/JAK1": 19.0}
{"line-notation": "N#CCC1(n2cc(-c3ncnc4[nH]ccc34)cn2)CN(C2CCN(C(=O)c3cnccn3)CC2)C1", "target-under-test": "human JAK1 (a.a. 837-1142)", "IC50 Ratio JAK2/JAK1": 3.2}
{"line-notation": "N#CCC1(n2cc(-c3ncnc4[nH]ccc34)cn2)CN(C2CCN(C(=O)c3cccc4ccccc34)CC2)C1", "target-under-test": "human JAK1 (a.a. 837-1142)", "IC50 Ratio JAK2/JAK1": 0.3}
{"line-notation": "N#CCC1(n2ccc(-c3ncnc4[nH]ccc34)c2)CN(C2CCN(C(=O)c3c(F)ccc(F)c3F)CC2)C1", "target-under-test": "human JAK1 (a.a. 837-1142)", "IC50 Ratio JAK2/JAK1": 6.1}

Kindly consider the entry below.
Req: Given the entry N#CCC1(n2cc(-c3ncnc4[nH]ccc34)cn2)CN(C2CCN(C(=O)c3c(F)cccc3C(F)(F)F)CC2)C1 , report its measured IC50 Ratio JAK2/JAK1.
Resp: 3.1

* * *

The following compounds are listed with their measured IC50 Ratio JAK2/JAK1 values.
- target-under-test: human JAK1 (a.a. 837-1142)
- method-notes: In vitro JAK kinase assay (HTRF, phosphorylation of a biotinylated peptide), JAK1
- Assay type: biochemical
- settings: measured at 1 mM ATP; JAK2 IC50 / JAK1 IC50
- Method: Compounds herein were tested for inhibitory activity of JAK targets according to the following in vitro assay described in Park et al., Analytical Biochemistry 1999, 269, 94-104. […] The phosphorylated peptide was detected by homogenous time resolved fluorescence (HTRF). […] Binding to the Europium labeled antibody took place for 40 minutes and HTRF signal was measured on a Fusion plate reader (Perkin Elmer, Boston, Mass.).
Reply briefly: the number, and no unit.

{"line-notation": "N#CCC1(n2cc(-c3ncnc4[nH]ccc34)cn2)CN(C2CCN(C(=O)c3ccc(-c4ccccc4C#N)c(F)c3)CC2)C1", "measured": 8.4}
{"line-notation": "N#CCC1(n2cc(-c3ccnc4[nH]ccc34)cn2)CN(C2CCN(C(=O)c3ccnc(C(F)(F)F)n3)CC2)C1", "measured": 6.6}
{"line-notation": "COc1ncccc1NC(=O)N1CCC(N2CC(CC#N)(n3cc(-c4ncnc5[nH]ccc45)cn3)C2)CC1", "measured": 4.0}
{"line-notation": "Cc1nc(F)ccc1NC(=O)N1CCC(N2CC(CC#N)(n3cc(-c4ncnc5[nH]ccc45)cn3)C2)CC1", "measured": 10.0}

Req: Given the entry N#CCC1(n2ccc(-c3ncnc4[nH]ccc34)c2)CN(C2CCN(C(=O)c3ccc(C(F)(F)F)c(F)c3)CC2)C1 , report its measured IC50 Ratio JAK2/JAK1.
Resp: 6.6

Req: Given the entry CC1(N2CC(CC#N)(n3cc(-c4ncnc5[nH]ccc45)cn3)C2)CCN(C(=O)c2cccc(F)c2)CC1 , report its measured IC50 Ratio JAK2/JAK1.
Resp: 4.0

Req: Given the entry N#CCC1(n2ccc(-c3ncnc4[nH]ccc34)c2)CN(C2CCN(C(=O)Nc3ncccc3F)CC2)C1 , report its measured IC50 Ratio JAK2/JAK1.
Resp: 9.1

Req: Given the entry N#CCC1(n2ccc(-c3ncnc4[nH]ccc34)c2)CN(C2CCN(C(=O)c3ccc(F)c(C(F)(F)F)c3)CC2)C1 , report its measured IC50 Ratio JAK2/JAK1.
Resp: 3.1

Req: Given the entry N#CCC1(n2cc(-c3ncnc4[nH]ccc34)cn2)CN(C2CCN(C(=O)c3cccc(F)c3F)CC2)C1 , report its measured IC50 Ratio JAK2/JAK1.
Resp: 4.9

Req: Given the entry N#CCC1(n2cc(-c3ncnc4[nH]ccc34)cn2)CN(C2CCN(C(=O)c3cccc(C(F)(F)F)c3)CC2)C1 , report its measured IC50 Ratio JAK2/JAK1.
Resp: 3.2

Req: Given the entry N#CCC1(n2cc(-c3ncnc4[nH]ccc34)cn2)CN(C2CCN(C(=O)Nc3ccccc3Cl)CC2)C1 , report its measured IC50 Ratio JAK2/JAK1.
Resp: 12.0

Req: Given the entry N#CCC1(n2cc(-c3ncnc4[nH]ccc34)cn2)CN(C2CCN(C(=O)c3ccc(-c4ccc(C#N)c(F)c4)c(F)c3)CC2)C1 , report its measured IC50 Ratio JAK2/JAK1.
Resp: 14.0

Req: Given the entry N#CCC1(n2cc(-c3ncnc4[nH]ccc34)cn2)CN(C2CCN(C(=O)Nc3cccc(Cl)c3F)CC2)C1 , report its measured IC50 Ratio JAK2/JAK1.
Resp: 8.5

Req: Given the entry N#CCC1(n2cc(-c3ncnc4[nH]ccc34)cn2)CN(C2CCN(Cc3ccc4c(c3)OCCO4)CC2)C1 , report its measured IC50 Ratio JAK2/JAK1.
Resp: 4.2

* * *

- target-under-test: human JAK1 (a.a. 837-1142)
- method-notes: In vitro JAK kinase assay (HTRF, phosphorylation of a biotinylated peptide), JAK1
- Type: biochemical
- settings: measured at 1 mM ATP; JAK2 IC50 / JAK1 IC50
- Description: Compounds herein were tested for inhibitory activity of JAK targets according to the following in vitro assay described in Park et al., Analytical Biochemistry 1999, 269, 94-104. […] The phosphorylated peptide was detected by homogenous time resolved fluorescence (HTRF). […] Binding to the Europium labeled antibody took place for 40 minutes and HTRF signal was measured on a Fusion plate reader (Perkin Elmer, Boston, Mass.).
reported-endpoint: IC50 Ratio JAK2/JAK1
Reply briefly: the number, and no unit.

Recorded results for 3 compounds are shown here.
{"line-notation": "N#CCC1(n2ccc(-c3ncnc4[nH]ccc34)c2)CN(C2CCN(C(=O)Nc3ccccc3C#N)CC2)C1", "IC50 Ratio JAK2/JAK1": 6.7}
{"line-notation": "Cc1nc(S(=O)(=O)N2CCC(N3CC(CC#N)(n4cc(-c5ncnc6[nH]ccc56)cn4)C3)CC2)cn1C", "IC50 Ratio JAK2/JAK1": 4.6}
{"line-notation": "N#CCC1(n2cc(-c3c(C#N)cnc4[nH]ccc34)cn2)CN(C2CCN(C(=O)c3cc(F)cc(C#N)c3)CC2)C1", "IC50 Ratio JAK2/JAK1": 8.8}

Req: Given the entry N#CCC1(n2cc(-c3ncnc4[nH]ccc34)cn2)CN(C2CCN(C(=O)c3ccc(F)c(F)c3F)CC2)C1 , report its measured IC50 Ratio JAK2/JAK1.
Resp: 6.3
